# target.or.system: NRAS WT (Homo sapiens (Human), UniProt P01111+P62937)
# Sequence (P01111 whole entry): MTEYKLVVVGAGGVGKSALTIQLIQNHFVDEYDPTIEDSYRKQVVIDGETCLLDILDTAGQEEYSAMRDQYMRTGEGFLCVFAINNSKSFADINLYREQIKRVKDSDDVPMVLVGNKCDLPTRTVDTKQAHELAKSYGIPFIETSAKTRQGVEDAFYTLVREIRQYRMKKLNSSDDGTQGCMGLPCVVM
# Sequence (P62937 whole entry): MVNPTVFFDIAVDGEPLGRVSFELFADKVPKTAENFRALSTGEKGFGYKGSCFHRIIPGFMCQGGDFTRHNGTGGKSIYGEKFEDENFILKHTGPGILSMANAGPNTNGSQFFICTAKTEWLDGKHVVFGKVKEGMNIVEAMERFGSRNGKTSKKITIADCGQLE
# experiment: Ras-Raf (BRAF RBD) disruption / FRET / MOA assay, NRAS WT
# Assay type: biochemical
# run.parameters: read-out: IC50* NRAS WT FRET data
pIC50: −log10 of the molar value.
property: pIC50

>  <compound>
CCn1c(-c2cccnc2[C@H](C)OC)c2c3cc(ccc31)-c1cccc(c1)C[C@H](NC(=O)[C@@H](COC1CN(C(=O)C#CC(C)(C)N(C)C(C)C)C1)C(C)C)C(=O)N1CCC[C@H](N1)C(=O)OCC(C)(C)C2 (atropisomer, axis not shown) [Example A599]

>  <target.or.system>
NRAS WT (Homo sapiens (Human), UniProt P01111+P62937)

>  <experimental.result>
< 5.00

$$$$
>  <compound>
CCn1c(-c2cccnc2[C@H](C)OC)c2c3cc(ccc31)N1CCC[C@@H](C[C@H](NC(=O)[C@@H](COC3CN(C(=O)C#CC(C)(C)N(C)C)C3)C(C)C)C(=O)N3CCC[C@H](N3)C(=O)OCC(C)(C)C2)C1 (atropisomer, axis not shown) [Example A715]

>  <target.or.system>
NRAS WT (Homo sapiens (Human), UniProt P01111+P62937)

>  <experimental.result>
< 5.00

$$$$
>  <compound>
C=CC(=O)N1CC[C@H](C(=O)N(C)[C@H](C(=O)N[C@H]2Cc3cccc(c3)-c3ccc4c(c3)c(c(-c3cnn(C)c3CN(C)C)n4CC)CC(C)(C)COC(=O)[C@@H]3CCCN(N3)C2=O)C(C)C)C1 (relative stereo) [Example A329]

>  <target.or.system>
NRAS WT (Homo sapiens (Human), UniProt P01111+P62937)

>  <experimental.result>
< 5.00

$$$$
>  <compound>
C=CC(=O)N1CCC12CN(C(=O)N(C)[C@H](C(=O)N[C@H]1Cc3nc(cs3)-c3ccc4c(c3)c(c(-c3cccnc3[C@H](C)OC)n4CC)CC(C)(C)COC(=O)[C@@H]3CCCN(N3)C1=O)C(C)C)C2 (atropisomer, axis not shown) [Example A393]

>  <target.or.system>
NRAS WT (Homo sapiens (Human), UniProt P01111+P62937)

>  <experimental.result>
6.00 to 7.00

$$$$
